Recorded %-inhibition of RET(M918T) for the following compounds
Target: panel of more than 300 wild-type and mutant kinases (313 kinase panel) (Homo sapiens, UniProt P07949, M918T)
Sequence (P07949 29-1114 M918T): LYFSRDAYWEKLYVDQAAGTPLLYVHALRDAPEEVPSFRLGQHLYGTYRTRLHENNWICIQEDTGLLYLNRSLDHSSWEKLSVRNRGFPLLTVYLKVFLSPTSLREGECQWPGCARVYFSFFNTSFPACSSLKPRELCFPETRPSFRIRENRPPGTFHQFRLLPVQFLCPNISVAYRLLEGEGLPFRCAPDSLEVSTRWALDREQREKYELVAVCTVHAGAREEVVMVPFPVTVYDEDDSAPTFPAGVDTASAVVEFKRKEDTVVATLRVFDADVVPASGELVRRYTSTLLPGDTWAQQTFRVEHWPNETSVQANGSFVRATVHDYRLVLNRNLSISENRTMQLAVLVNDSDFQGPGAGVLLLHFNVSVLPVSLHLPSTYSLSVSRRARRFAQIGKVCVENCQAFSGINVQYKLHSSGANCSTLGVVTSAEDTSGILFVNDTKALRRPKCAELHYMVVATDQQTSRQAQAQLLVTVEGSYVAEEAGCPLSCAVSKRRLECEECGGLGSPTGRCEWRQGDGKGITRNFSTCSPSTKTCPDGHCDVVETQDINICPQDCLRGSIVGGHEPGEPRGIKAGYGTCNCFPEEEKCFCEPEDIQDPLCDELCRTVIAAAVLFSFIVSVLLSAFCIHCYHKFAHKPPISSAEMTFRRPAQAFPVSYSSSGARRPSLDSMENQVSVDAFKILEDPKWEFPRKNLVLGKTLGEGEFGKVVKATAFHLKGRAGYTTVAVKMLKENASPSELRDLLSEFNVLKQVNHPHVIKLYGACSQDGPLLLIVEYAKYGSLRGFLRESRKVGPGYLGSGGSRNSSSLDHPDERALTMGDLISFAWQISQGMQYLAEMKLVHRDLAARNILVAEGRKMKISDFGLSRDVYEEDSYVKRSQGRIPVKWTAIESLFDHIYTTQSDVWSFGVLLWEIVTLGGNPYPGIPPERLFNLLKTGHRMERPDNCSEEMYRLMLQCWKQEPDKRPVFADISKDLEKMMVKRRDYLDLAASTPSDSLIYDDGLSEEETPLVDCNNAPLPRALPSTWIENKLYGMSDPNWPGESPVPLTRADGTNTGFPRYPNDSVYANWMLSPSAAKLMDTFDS
Assay: Kinase profiling in a biochemical assay panel (mobility shift assays and ELISA), %-inhibition at 1 μM; selectivity entropy
Conditions: 1 µM
All answers are understood in %, so give the number only.

Some solved cases for reference:
CS(=O)(=O)CCNCc1ccc(-c2ccc3ncnc(Nc4ccc(OCc5cccc(F)c5)c(Cl)c4)c3c2)o1 :: -4.37
C#Cc1cccc(Nc2ncnc3cc(OCCOC)c(OCCOC)cc23)c1 :: 67

Memo: `CNC(=O)c1cc(Oc2ccc(NC(=O)Nc3ccc(Cl)c(C(F)(F)F)c3)c(F)c2)ccn1` , reported %-inhibition of RET(M918T): 102

Memo: `Cc1cn(-c2cc(NC(=O)c3ccc(C)c(Nc4nccc(-c5cccnc5)n4)c3)cc(C(F)(F)F)c2)cn1` , reported %-inhibition of RET(M918T): 0.118

====

Recorded %-inhibition, BTK for the following compounds
Target: panel of more than 300 wild-type and mutant kinases (313 kinase panel) (Homo sapiens)
Test: Kinase profiling in a biochemical assay panel (mobility shift assays and ELISA), %-inhibition at 1 μM; selectivity entropy
Details: kinase BTK; 1 μM compound
All answers are understood in %, so give the number only.

Some solved cases for reference:
CCCS(=O)(=O)Nc1ccc(F)c(C(=O)c2c[nH]c3ncc(-c4ccc(Cl)cc4)cc23)c1F :: 2
CC(=O)Nc1cccc(-n2c(=O)n(C3CC3)c(=O)c3c(Nc4ccc(I)cc4F)n(C)c(=O)c(C)c32)c1 :: 18
COc1cc2nccc(Oc3ccc(NC(=O)C4(C(=O)Nc5ccc(F)cc5)CC4)cc3)c2cc1OC [cabozantinib] :: 93

# context switch: different compound, same %-inhibition, BTK
Memo: `Cc1ccc(Nc2nccc(N(C)c3ccc4c(C)n(C)nc4c3)n2)cc1S(N)(=O)=O` , reported %-inhibition, BTK: 13

====

Recorded pIC50 for the following molecules
Test system: forty-four human cancer cell lines
Assay: Cell proliferation assay (ATPlite, 72 hours) in the 44 cell line Oncolines panel
Type: cell-based
Conditions: Homo sapiens, A-427, read-out: cell panel IC50, A-427, cell line A-427
Remember, pIC50 is on a log scale: it is -log10 of the molar concentration.

COc1cc([C@@H]2c3cc4c(cc3[C@@H](O[C@@H]3O[C@@H]5CO[C@@H](C)O[C@H]5[C@H](O)[C@H]3O)[C@H]3COC(=O)[C@H]23)OCO4)cc(OC)c1O [etoposide] :: 6.46
CC(C)C[C@H](NC(=O)[C@H](Cc1ccccc1)NC(=O)c1cnccn1)B(O)O :: 7.96

# context switch: different molecule, same pIC50
Memo: `CC[C@]1(O)C[C@H]2CN(CCc3c([nH]c4ccccc34)[C@@](C(=O)OC)(c3cc4c(cc3OC)N(C=O)[C@H]3[C@@](O)(C(=O)OC)[C@H](OC(C)=O)[C@]5(CC)C=CCN6CC[C@]43[C@@H]65)C2)C1` , reported pIC50: 8.64

====

Target: panel of more than 300 wild-type and mutant kinases (313 kinase panel) (Homo sapiens, UniProt P11802)
Sequence (P11802 whole entry, change not shown): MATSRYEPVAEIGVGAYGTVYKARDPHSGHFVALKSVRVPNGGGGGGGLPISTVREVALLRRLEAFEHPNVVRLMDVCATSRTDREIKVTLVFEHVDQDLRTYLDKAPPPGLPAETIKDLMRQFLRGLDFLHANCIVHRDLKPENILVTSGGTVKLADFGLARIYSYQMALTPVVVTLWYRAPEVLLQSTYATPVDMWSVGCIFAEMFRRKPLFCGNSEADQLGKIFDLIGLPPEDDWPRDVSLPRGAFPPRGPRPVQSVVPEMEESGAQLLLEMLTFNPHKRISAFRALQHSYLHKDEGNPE
Assay: Kinase profiling in a biochemical assay panel (mobility shift assays and ELISA), %-inhibition at 1 μM; selectivity entropy
Conditions: kinase CDK4/CycD3; 1 μM compound
Measured quantity: %-inhibition, CDK4/CycD3 (%)
All answers are understood in %, so give the number only.

Some solved cases for reference:
CO[C@H]1C[C@@H]2CC[C@@H](C)[C@@](O)(O2)C(=O)C(=O)N2CCCC[C@H]2C(=O)O[C@H]([C@H](C)C[C@@H]2CC[C@@H](OC(=O)C(C)(CO)CO)[C@H](OC)C2)CC(=O)[C@H](C)/C=C(\C)[C@@H](O)[C@@H](OC)C(=O)[C@H](C)C[C@H](C)/C=C/C=C/C=C/1C :: -2.83
Cc1ccc(C(=O)Nc2ccc(CN3CCN(C)CC3)c(C(F)(F)F)c2)cc1C#Cc1cnc2cccnn12 :: 24
CO[C@H]1C[C@@H]2CC[C@@H](C)[C@@](O)(O2)C(=O)C(=O)N2CCCC[C@H]2C(=O)O[C@H]([C@H](C)C[C@@H]2CC[C@@H](OCCO)[C@H](OC)C2)CC(=O)[C@H](C)/C=C(\C)[C@@H](O)[C@@H](OC)C(=O)[C@H](C)C[C@H](C)/C=C/C=C/C=C/1C :: -9

Memo: `Cc1nc(Nc2ncc(C(=O)Nc3c(C)cccc3Cl)s2)cc(N2CCN(CCO)CC2)n1` , reported %-inhibition, CDK4/CycD3: 2.8

Memo: `Cc1ccc(Nc2nccc(N(C)c3ccc4c(C)n(C)nc4c3)n2)cc1S(N)(=O)=O` , reported %-inhibition, CDK4/CycD3: 16
